Provide the reported composite z-score of each item.
Test system: Sam68 (KHDRBS1)
EXPERIMENT: Sam68 small-molecule binders, primary screen, biochemical, small-molecule microarray, 635 nm fluorescence (AID 1125);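 further: score merges 667 nm channel intensity with signal to noise over triplicate slides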
DETAILS: small-molecule microarray binding, higher = more signal
Answer with a bare number; do not write a unit.

Measured composite z-score (Sam68 (KHDRBS1)), entry CN1C(=O)C2C=CC(C(O)c3ccc(F)cc3)N(NC(=O)OC(C)(C)C)C2C1=O (centres undefined) : 1.03

The molecule NC(=O)N1C(=O)C2C(C1=O)C1C=C(CCCO)C2C(C2CC2)N1Cc1cccc(OC(F)(F)F)c1 (centres undefined) , tested on Sam68 (KHDRBS1), showed composite z-score of 0.588

The molecule CC(C)CNC(=O)[C@@]1(c2ccc([N+](=O)[O-])cc2)CC(=O)N(C2CCCCC2)[C@@H]1c1ccc(CO)cc1 , tested on Sam68 (KHDRBS1), showed composite z-score of 0.244

Bench note, Sam68 (KHDRBS1): O=C1OCCC/C=C\[C@H]2OC34C=CCN(c5ccc6ccccc6c5)C(=O)[C@H]3N(CCCO)C(=O)[C@@H]4C12 (some centres undefined) , composite z-score reads 0.235

Record COC(=O)[C@@]1(Cc2ccc(F)cc2)[C@H]2c3cc(C(=O)N(C)C)n(Cc4ccc(O)c(OC)c4)c3C[C@H]2CN1C(=O)c1ccccc1 has Sam68 (KHDRBS1) composite z-score equal to 0.607

Item COC(=O)C(CC#Cc1ccc2c(c1)[C@]1(C(=O)N2)[C@H](C(=O)Nc2nc3ccccc3s2)[C@H]2C(=O)O[C@H](c3ccccc3)[C@H](c3ccccc3)N2[C@@H]1c1ccc(OCCO)cc1)C(=O)OC ; assay system Sam68 (KHDRBS1); composite z-score reported as 1.3

Observed composite z-score, Sam68 (KHDRBS1), COC(=O)C(CC#Cc1ccc2c(c1)[C@]1(C(=O)N2)[C@H](c2ccc(O)cc2)N2[C@H](c3ccccc3)[C@H](c3ccccc3)OC(=O)[C@H]2[C@@H]1C(=O)N1CCCCCCC1)C(=O)OC : 1.29

Test item [N-]=[N+]=NCc1ccccc1C[C@@]1(C(=O)N2CCCCC2)N=C(c2ccc(OCCCO)cc2)O[C@@H]1c1ccccc1CN=[N+]=[N-] ; Sam68 (KHDRBS1); reported composite z-score was 1.08

Form field composite z-score for item O=C1[C@@]23C=C(Br)[C@H](C[C@@H]2COC3)[C@@]12CO2 on Sam68 (KHDRBS1): 0.206

###

EXPERIMENT: binders of probe aHhip on microarray, primary screen, stem cell growth factor project, biochemical, small-molecule microarray, fluorescence 635/667 (AID 1087);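 further: score merges spot fluorescence at 667nm with spot signal to noise ratio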
DETAILS: higher = more signal
OBSERVATION TYPE: composite z-score
Answer with a number only.

Measured composite z-score, Nc1cc(Br)ccc1C(=O)O : -0.229

Per the record, O=C1OCCC=C[C@H]2OC34C=CCN(c5ccc(Cl)cc5)C(=O)[C@H]3N(CCCCCCO)C(=O)[C@@H]4C12 (some centres undefined) has composite z-score of -0.226

Documented composite z-score of C=C(CCCC)C(=O)CC[C@H](OC(=O)c1ccccc1-c1ccccc1C(=O)O)c1ccccc1OCCO : -0.249

Notebook: [N-]=[N+]=Nc1ccccc1[C@@H]1OC(c2ccc(OCCCO)cc2)=N[C@]1(Cc1ccccc1)C(=O)NCc1ccccc1 , composite z-score read as 0.0614

Entry under test: COCCOC(=O)N1C(=O)[C@@]2(c3cc(C#CCC(C(=O)OC)C(=O)OC)ccc31)[C@H](c1ccc(OCCO)cc1)N1[C@H](c3ccccc3)[C@H](c3ccccc3)OC(=O)[C@H]1[C@@H]2C(=O)Nc1nc2ccccc2s1 . Its composite z-score was -0.148

The reported value for CCOC(=O)C[C@H]1[C@H](OC(=O)c2ccc(-c3ccccc3)cc2)[C@@H](NC(=O)Cc2ccc(OC)cc2)c2cc(OCCCO)ccc2N1C(=O)Cc1ccc(OC)cc1 in terms of composite z-score is -0.154

Consider O=C1C2C=CC(C(O)c3ccco3)N(Nc3ccccc3)C2C(=O)N1c1ccccc1 (centres undefined) . Its measured composite z-score is -0.134

composite z-score reading for CC1(C)C(=O)C(c2ccccc2)=C2CN3C(=O)N(CCc4ccccc4)C(=O)C3(Cc3ccc(F)cc3)C=C21 (centres undefined) : 0.0818

Value of composite z-score reported for the compound COC(=O)C1N=C(c2ccc(OCCCO)cc2)N(c2ccccc2)O1 (centres undefined) is -0.317

composite z-score measured on C=C(COC)C(=O)CC[C@H](OC(C)=O)c1ccc(OCCO)cc1 = -0.191

compound CN(C)C(=O)[C@@]1(Cc2ccccc2)COC(c2ccc(OCCCO)cc2)=N1 , composite z-score observed: 0.217

Lab note: CC(=O)n1cc(C(O)C2C=CC3C(=O)N(c4ccccc4)C(=O)C3N2Nc2ccc(C(C)C)cc2)c2ccccc21 (centres undefined) gave composite z-score of -0.0645

Sure, the documented composite z-score for O=C1O[C@H](c2ccccc2)[C@H](c2ccccc2)N2[C@H]1[C@@H](C(=O)N1CCCCCCC1)[C@]1(C(=O)Nc3ccc(C#CC4(O)CCCCCC4)cc31)[C@H]2c1ccccc1OCCO is 1.9

composite z-score measured on COc1ccc([Si](C)(C)[C@H]2[C@H](CCO)O[C@@]3(C(=O)N(Cc4ccc(N5C(=O)c6ccccc6Oc6ccccc65)cc4)c4ccccc43)[C@@H]2C)cc1 = -0.284

###

EXPERIMENT: modulators of S6 phosphorylation in cells, primary screen, cell-based, A549, cytoblot, luminescence, serum-stimulated (AID 1158);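 further: serum-stimulated A549 lung adenocarcinoma cells; signal is phosphorylated S6 detected by cytoblot immunostaining with HRP secondary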
DETAILS: A549 phospho-S6 cytoblot, 5 h, higher = more signal
OBSERVATION TYPE: z-score
Please give only the number in your answer, with no unit.

Quick note, z-score for Cc1cccc([C@H]2C[C@H]3C(Br)=C[C@@H]2C(=O)[C@]32CO2)c1 landed at 0.209

Note to self: z-score recorded for CN1C(=O)C2C=CC(C(O)c3ccc(I)cc3)N(Nc3ccccc3)C2C1=O (stereo unspecified) was -0.919

Field z-score (entry CCOC(=O)C1=CCC(c2ccco2)N(S(=O)(=O)c2ccc(C)cc2)C1 (stereo unspecified) ) reads 0.406

Entry C=C(COC)/C(=C/C[C@H](OC(C)=O)c1cccc(OCCO)c1)c1cnc2ccccc2c1 ; z-score = -0.512

Quick note, z-score for COc1ccc([Si](C)(C)[C@H]2[C@H](CC(=O)N3Cc4ccccc4C[C@H]3CO)O[C@@]3(C(=O)N(Cc4ccc(N5C(=O)c6cccc7cccc5c67)cc4)c4ccccc43)[C@@H]2C)cc1 landed at 0.412

The reported value for O=C1C[C@@](C(=O)NCc2ccccc2)(c2ccc([N+](=O)[O-])cc2)[C@@H](c2ccc(CO)cc2I)N1CC12CC3CC(CC(C3)C1)C2 in terms of z-score is 2.5

The reported value for CCN(CC)c1ccc(N2CC=CC34O[C@@H]5C=CCCOC(=O)C5[C@H]3C(=O)N(CCO)[C@@H]4C2=O)cc1 (stereo partly specified) in terms of z-score is -0.616

z-score reported for this molecule CCCC=C(CCC)[C@@H](NC(=O)CCc1ccccc1)c1ccc(C(F)(F)F)cc1 : 0.697

z-score for C=C(CCCC)C(=O)CC[C@H](OC(=O)c1ccccc1-c1ccccc1C(=O)O)c1ccccc1OCCO is -0.27

Documented z-score of C=C(C(=O)CC[C@H](OC(=O)c1ccccc1-c1ccccc1C(=O)O)c1ccccc1OCCO)C(C)C : -0.549

Record summary for CCOC(=O)C[C@H]1[C@H](OC(=O)c2ccc(-c3ccccc3)cc2)[C@@H](NC(=O)CC(C)C)c2cc(OCCCO)ccc2N1C(=O)c1ccccc1 : reported z-score = 0.574

###

EXPERIMENT: small-molecule microarray binders of probe aEGFR, primary screen, biochemical, biotinylated probe, 635/667 nm fluorescence (AID 1097);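 further: probe is a biotinylated anti-EGFR antibody binding compounds printed on slides; score combines fluorescence near 667 nm and signal to noise of each spot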
DETAILS: higher = more signal
Task for the reader: assign each of the following compounds its reported composite z-score.
Write the value as a bare number.

O=C1O[C@H](c2ccccc2)[C@H](c2ccccc2)N2[C@H]1[C@@H](C(=O)N1CCCCCCC1)[C@]1(C(=O)Nc3ccc(C#CC4(O)CCCCCC4)cc31)[C@H]2c1ccccc1OCCO has a reported composite z-score of 1.51

Entry COCC(=C=CC[C@H](O)c1cccc(OCCO)c1)C[C@H](O)COCc1ccccc1 ; composite z-score = 0.0167

Short answer for CC(C)C[C@@H]1NC(=O)[C@@H]2C[C@H](C(=O)NCCCCCC[N+](C)(C)C)[C@H](c3cccc(OCCO)c3)N2C1=O : composite z-score was -0.0572

Value of composite z-score reported for the compound CC(C)C[C@@H]1NC(=O)CNC(=O)[C@@]23C(=O)N[C@@H](Cc4ccccc4)C2[C@H](C)[C@@]2(C)O[C@H]2C3/C=C/C/C=C\CNC1=O (stereo not given in full) is -0.0828

Documented composite z-score of COC(=O)[C@@]1(Cc2ccccc2)[C@H]2c3cc(C(=O)N4CCCC4)n(CCSCCO)c3C[C@H]2CN1C(=O)c1ccccc1 : 0.0971

Documented composite z-score of CC(C)CNC(=O)[C@@H]1c2ccccc2C(=O)N(C2CCCCC2)[C@H]1c1ccc(CO)cc1 : -0.218

compound COC(=O)C(CC#Cc1ccc2c(c1)[C@]1(C(=O)N2)[C@H](c2ccc(OCCO)cc2)N2[C@H](c3ccccc3)[C@H](c3ccccc3)OC(=O)[C@H]2[C@@H]1C(=O)N1CCN(c2ncccn2)CC1)C(=O)OC , composite z-score observed: 0.153

// composite z-score value for COC(=O)[C@@]1(Cc2ccccc2CN=[N+]=[N-])N=C(c2ccc(OCCCO)cc2)O[C@H]1c1ccccc1 : 0.0209

Reported composite z-score for O=C1N[C@@H](Cc2ccccc2)C(=O)N2[C@@H]1C[C@@H](C(=O)O)[C@H]2c1ccc(O)cc1 was 0.335

For this compound ( C=CCNC(=O)[C@@H]1[C@H]2C(=O)O[C@H](c3ccccc3)[C@H](c3ccccc3)N2[C@H](c2ccc(O)cc2)[C@@]12C(=O)N(C(=O)OCCOC)c1ccc(C#CCCO)cc12 ), measured composite z-score is 0.189

These data points were gathered from PubChem BioAssay.
